Reported values of pIC50 for individual entries
tested target: mouse c-type glutaminase (mGAC) (Mus musculus, UniProt D3Z7P3)
Sequence (D3Z7P3 55-603 isoform D3Z7P3-2 limits assumed): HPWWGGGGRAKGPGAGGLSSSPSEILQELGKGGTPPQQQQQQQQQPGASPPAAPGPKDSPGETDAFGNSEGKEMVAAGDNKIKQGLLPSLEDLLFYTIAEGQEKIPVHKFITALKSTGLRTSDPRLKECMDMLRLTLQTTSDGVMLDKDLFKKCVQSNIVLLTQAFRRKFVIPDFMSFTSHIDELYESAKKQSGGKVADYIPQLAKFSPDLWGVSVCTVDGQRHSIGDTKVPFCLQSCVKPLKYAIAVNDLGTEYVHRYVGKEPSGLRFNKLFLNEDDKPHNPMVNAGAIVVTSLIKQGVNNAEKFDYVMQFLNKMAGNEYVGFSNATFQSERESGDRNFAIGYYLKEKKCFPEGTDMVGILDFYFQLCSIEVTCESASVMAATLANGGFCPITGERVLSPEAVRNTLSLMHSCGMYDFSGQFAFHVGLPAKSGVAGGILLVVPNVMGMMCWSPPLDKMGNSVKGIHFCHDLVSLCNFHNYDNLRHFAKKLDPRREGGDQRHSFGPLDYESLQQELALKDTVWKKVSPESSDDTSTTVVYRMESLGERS
assay text: Glutaminase activity, Amplex UltraRed fluorescent assay
Type: biochemical
pIC50: −log10 of the molar value. Structures can show the parent of a compound that is named as a salt.
measured endpoint: pIC50

1. CN1CCc2cccc3c2C1Cc1ccc(O)c(O)c1-3 (stereo not drawn) [Apomorphine hydrochloride] : 6.00
2. COc1ccc2c(c[n+](C)c3c4cc5c(cc4ccc23)OCO5)c1OC [Chelerythrine chloride] : 7.15
3. O=c1c2ccccc2[se]n1-c1ccccc1 [Ebselen, 2-phenyl-1,2-benzisoselenazol-3[2H]-one] : 7.70

---

tested target: UniProtKB O94925
assay text: Glutaminase activity of analogs
Type: biochemical
cond: read-out: Avg. IC50; Table 6, analogs of apomorphine
pIC50: −log10 of the molar value. Structures can show the parent of a compound that is named as a salt.
measured endpoint: pIC50

1. CN1CCc2cccc3c2[C@@H]1Cc1ccc(O)c(O)c1-3 [S–Apomorphine hydrochloride] : 6.40

---

tested target: mouse liver glutaminase (mLGA) (Mus musculus)
Sequence (Q571F8 15-602): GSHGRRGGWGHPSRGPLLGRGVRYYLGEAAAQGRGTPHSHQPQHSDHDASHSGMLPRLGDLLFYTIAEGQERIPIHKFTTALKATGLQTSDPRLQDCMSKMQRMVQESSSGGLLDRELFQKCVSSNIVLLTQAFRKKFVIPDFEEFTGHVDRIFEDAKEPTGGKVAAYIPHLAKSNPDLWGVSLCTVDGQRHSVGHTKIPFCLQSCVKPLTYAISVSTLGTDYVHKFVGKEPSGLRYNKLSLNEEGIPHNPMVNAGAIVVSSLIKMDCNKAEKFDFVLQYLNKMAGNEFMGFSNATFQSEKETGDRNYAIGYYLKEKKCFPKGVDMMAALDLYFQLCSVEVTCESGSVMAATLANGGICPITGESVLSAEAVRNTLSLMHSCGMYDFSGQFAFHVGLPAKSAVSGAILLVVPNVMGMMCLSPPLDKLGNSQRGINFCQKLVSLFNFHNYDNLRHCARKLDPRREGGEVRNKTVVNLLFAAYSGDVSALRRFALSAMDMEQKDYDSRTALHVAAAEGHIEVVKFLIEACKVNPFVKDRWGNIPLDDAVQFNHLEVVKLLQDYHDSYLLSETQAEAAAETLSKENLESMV
pIC50: −log10 of the molar value. Counter-ions that a name gives are not always drawn.
measured endpoint: pIC50

1) O=c1c2ccccc2[se]n1-c1ccccc1 [Ebselen, 2-phenyl-1,2-benzisoselenazol-3[2H]-one] : 7.00
2) CN1CCc2cccc3c2C1Cc1ccc(O)c(O)c1-3 (stereo not drawn) [Apomorphine hydrochloride] : 6.52
3) COc1ccc2c(c[n+](C)c3c4cc5c(cc4ccc23)OCO5)c1OC [Chelerythrine chloride] : 6.52

---

tested target: glutaminase (hKGAΔ1) (Homo sapiens, UniProt O94925)
cond: Ki (competition studies), presence of glutamine
Counter-ions that a name gives are not always drawn.
measured endpoint: Ki

1) CN1CCc2cccc3c2C1Cc1ccc(O)c(O)c1-3 (stereo not shown) [Apomorphine hydrochloride] : 2 µM

---

Listed here: items and their measured kinact/KI.
tested target: glutaminase (hKGAΔ1) (Homo sapiens, UniProt O94925)
assay text: Inactivation studies: time-dependent inhibition of glutaminase
Assay type: biochemical
Counter-ions that a name gives are not always drawn.
measured endpoint: kinact/KI (M⁻¹ s⁻¹)

1) [N-]=[N+]=CC(=O)CC[C@H](N)C(=O)O : 2.53
2) O=c1c2ccccc2[se]n1-c1ccccc1 [Ebselen, 2-phenyl-1,2-benzisoselenazol-3[2H]-one] : 25200
3) CN1CCc2cccc3c2C1Cc1ccc(O)c(O)c1-3 (stereo not shown) [Apomorphine hydrochloride] : 13200
4) COc1ccc2c(c[n+](C)c3c4cc5c(cc4ccc23)OCO5)c1OC [Chelerythrine chloride] : 29200

---

tested target: glutaminase (hKGAΔ1) (Homo sapiens, UniProt O94925)
Sequence (O94925 124-669 limits assumed): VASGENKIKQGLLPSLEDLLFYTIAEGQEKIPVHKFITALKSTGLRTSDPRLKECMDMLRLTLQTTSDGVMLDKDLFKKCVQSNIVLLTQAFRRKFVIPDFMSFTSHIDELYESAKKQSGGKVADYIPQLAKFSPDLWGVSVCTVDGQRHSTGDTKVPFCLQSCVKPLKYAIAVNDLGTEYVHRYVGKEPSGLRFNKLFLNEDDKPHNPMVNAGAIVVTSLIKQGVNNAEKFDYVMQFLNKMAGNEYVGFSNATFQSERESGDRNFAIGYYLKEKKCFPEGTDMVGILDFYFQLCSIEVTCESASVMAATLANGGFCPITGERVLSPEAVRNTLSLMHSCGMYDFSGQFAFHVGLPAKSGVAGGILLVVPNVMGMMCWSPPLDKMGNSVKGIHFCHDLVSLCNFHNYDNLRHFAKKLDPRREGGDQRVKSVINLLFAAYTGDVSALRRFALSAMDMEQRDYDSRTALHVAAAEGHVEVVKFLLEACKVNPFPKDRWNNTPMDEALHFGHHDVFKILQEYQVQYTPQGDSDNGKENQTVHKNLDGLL
assay text: Inactivation studies: time-dependent inhibition of glutaminase
Assay type: biochemical
cond: rate constant of inactivation
Where a name gives a salt, the structure may show the parent alone.
Recorded kinact by entry
measured endpoint: kinact (s⁻¹)

1. CN1CCc2cccc3c2C1Cc1ccc(O)c(O)c1-3 (stereo not shown) [Apomorphine hydrochloride] : 5.56e-05
2. COc1ccc2c(c[n+](C)c3c4cc5c(cc4ccc23)OCO5)c1OC [Chelerythrine chloride] : 0.000958
3. [N-]=[N+]=CC(=O)CC[C@H](N)C(=O)O : 1.39e-05
4. O=c1c2ccccc2[se]n1-c1ccccc1 [Ebselen, 2-phenyl-1,2-benzisoselenazol-3[2H]-one] : 0.000364

---

tested target: glutaminase (hKGAΔ1) (Homo sapiens)
Sequence (O94925 124-669 limits assumed): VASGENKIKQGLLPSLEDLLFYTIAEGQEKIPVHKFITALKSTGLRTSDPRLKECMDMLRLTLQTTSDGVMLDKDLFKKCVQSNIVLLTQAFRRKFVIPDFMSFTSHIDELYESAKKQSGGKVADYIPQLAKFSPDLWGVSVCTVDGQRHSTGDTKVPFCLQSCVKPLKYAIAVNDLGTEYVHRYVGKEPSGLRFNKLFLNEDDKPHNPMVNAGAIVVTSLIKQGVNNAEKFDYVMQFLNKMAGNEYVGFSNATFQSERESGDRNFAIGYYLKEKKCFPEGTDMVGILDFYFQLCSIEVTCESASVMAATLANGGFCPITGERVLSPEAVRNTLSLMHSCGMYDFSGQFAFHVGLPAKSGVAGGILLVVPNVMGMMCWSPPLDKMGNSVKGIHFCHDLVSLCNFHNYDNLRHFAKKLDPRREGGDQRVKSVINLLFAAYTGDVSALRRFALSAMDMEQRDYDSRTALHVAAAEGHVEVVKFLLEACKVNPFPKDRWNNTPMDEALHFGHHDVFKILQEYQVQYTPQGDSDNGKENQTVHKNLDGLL
Assay type: biochemical
cond: competition studies; average of 2–4 determinations
Structures can show the parent of a compound that is named as a salt.
measured endpoint: Mode of inhibition

1. COc1ccc2c(c[n+](C)c3c4cc5c(cc4ccc23)OCO5)c1OC [Chelerythrine chloride] : Competitive
2. CN1CCc2cccc3c2C1Cc1ccc(O)c(O)c1-3 (stereo not shown) [Apomorphine hydrochloride] : Competitive

---

tested target: glutaminase (Homo sapiens, UniProt O94925)
assay text: Glutaminase activity of analogs
Type: biochemical
pIC50: −log10 of the molar value. Structures can show the parent of a compound that is named as a salt.
I would appreciate it if you labelled entries rule met when pIC50 is 6 or higher, otherwise rule not met.

1. c1cc2c(cnc3c4cc5c(cc4ccc23)OCO5)c2c1OCO2 [Norsanguinarine chloride] : rule not met
2. O=c1c2ccccc2sn1-c1ccccc1 [2-Phenylbenzo[d]isothiazol-3(2H)-one] : rule met
3. COc1ccc2cc3[n+](cc2c1OC)CCc1cc2c(cc1-3)OCO2 [Berberine chloride] : rule not met
4. O=C1c2ccccc2CN1c1ccccc1 [2-Phenyl isoindolin-1-one] : rule not met
5. COc1cc2c[n+](C)c3c4cc5c(cc4ccc3c2cc1OC)OCO5 [Nitidine chloride] : rule not met
6. CN1CCc2cccc3c2C1Cc1ccc(O)c(O)c1-3 (stereo not drawn) [Apomorphine hydrochloride] : rule met
7. COc1ccc2c(c[n+](C)c3c4cc5c(cc4ccc23)OCO5)c1OC [Chelerythrine chloride] : rule met
8. O=c1c2ccccc2on1-c1ccccc1 [2-Phenylbenzo[d] isoxazol-3(2H)-one] : rule not met
9. C[n+]1cc2c3c(ccc2c2ccc4cc5c(cc4c21)OCO5)OCO3 [Sanguinarine chloride] : rule met
